# assay_protocol: xn = mol fraction of the nth substance listed
# stated_conditions: 298.15 K; 101.32 kPa; Liquid; x2 = 0.8
reported_property: viscosity (mPa·s)
Give the number; mPa·s is assumed, so skip it.

Record request: viscosity value, item CCCCCl [1-chlorobutane] + CCCO
1.206

Quick one: CCCCCl [1-chlorobutane] + CO
0.506

Quick one: CCCCCl [1-chlorobutane] + CCCCO
1.563

Quick one: CCCCCl [1-chlorobutane] + CCO
0.781

====

# stated_conditions: 298.15 K; 101.32 kPa; Liquid
reported_property: viscosity (mPa·s)
Give the number; mPa·s is assumed, so skip it.

Record request: viscosity value, item CCCO
1.958

Quick one: CCCCCl
0.423

Quick one: CO
0.543

Quick one: CCCCO
2.598

Quick one: CCO
1.085
